# Test system: PPARg:RXRa (NR concentration 180 nM, RXRa partner concentration 90 nM)
# test_description: PBM binding z-score (relative to random genomic background probes); higher = stronger binding; sequences stand for … in GC…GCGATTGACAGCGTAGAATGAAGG
test_readout: PBM binding z-score

input_sequence	readout_number
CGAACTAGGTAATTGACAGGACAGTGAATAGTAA	1.09
CGTCCGAGGTCAGAGAGGTCAGTGAATGCCGAGT	4.63
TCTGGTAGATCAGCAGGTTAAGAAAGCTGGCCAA	-0.637
GCTAGCAGGCCATGTGGGTCACTCAATGACGGGC	1.31
CCCTACGGGTCACTCCAGGTTATAGCATCGGAGT	2.65
ATACTAAGGTGATCGTGAGGTCGTTGATACTAAC	0.615
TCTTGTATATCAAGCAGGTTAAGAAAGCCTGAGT	-0.217
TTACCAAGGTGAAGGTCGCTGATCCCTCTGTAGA	2.63

###

# Test system: PXR homodimer (NR concentration 270 nM)
# test_description: PBM binding z-score (relative to random genomic background probes); higher = stronger binding; sequences stand for … in GC…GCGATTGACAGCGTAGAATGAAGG
Some sequences, each annotated with its measured PBM binding z-score.

input_sequence	PBM binding z-score
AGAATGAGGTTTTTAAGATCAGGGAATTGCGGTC	-0.508
TTACTAAGGTGAAGGTCGTTGATCCCTCTGTAGA	0.493
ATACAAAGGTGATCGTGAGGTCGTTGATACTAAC	1.38
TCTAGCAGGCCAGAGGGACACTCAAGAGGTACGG	-0.661
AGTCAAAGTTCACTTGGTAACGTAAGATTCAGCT	2.53
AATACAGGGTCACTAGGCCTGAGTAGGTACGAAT	0.251
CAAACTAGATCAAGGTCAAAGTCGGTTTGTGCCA	1.98
TGTATTAGTTGAAGGGCAACCGACGAGTCCGTTT	0.962
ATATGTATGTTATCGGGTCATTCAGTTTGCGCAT	6.74
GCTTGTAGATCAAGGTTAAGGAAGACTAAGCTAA	-0.237
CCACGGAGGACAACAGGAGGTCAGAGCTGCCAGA	0.52
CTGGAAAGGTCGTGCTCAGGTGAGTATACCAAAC	-0.203
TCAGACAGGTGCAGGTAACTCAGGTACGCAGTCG	-0.203
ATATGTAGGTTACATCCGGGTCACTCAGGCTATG	1.26
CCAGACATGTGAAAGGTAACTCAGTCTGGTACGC	-0.196
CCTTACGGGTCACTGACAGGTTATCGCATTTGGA	-0.364
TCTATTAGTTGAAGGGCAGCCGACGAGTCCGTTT	0.958
TCATATAGGTAAAGATGAAAGTCGAACGATATGA	-0.0684
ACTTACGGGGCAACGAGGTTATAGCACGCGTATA	0.644
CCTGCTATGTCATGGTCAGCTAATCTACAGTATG	-0.359
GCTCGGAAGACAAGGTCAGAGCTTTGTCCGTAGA	-0.453
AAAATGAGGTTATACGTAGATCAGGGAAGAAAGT	0.994
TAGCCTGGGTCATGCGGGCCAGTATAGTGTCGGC	-0.615
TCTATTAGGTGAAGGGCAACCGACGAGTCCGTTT	0.805
TGAATGAGGTTATAAGATCAGGGCACGTTGCAAA	-0.152
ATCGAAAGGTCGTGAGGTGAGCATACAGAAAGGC	0.261
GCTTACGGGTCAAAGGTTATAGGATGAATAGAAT	0.559
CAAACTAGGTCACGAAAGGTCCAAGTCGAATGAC	0.339
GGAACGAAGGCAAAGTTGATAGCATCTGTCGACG	-0.569
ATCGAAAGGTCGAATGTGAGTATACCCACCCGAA	0.558
AGAATGAGGTTACCAAAGATCAGGGATACGCTTG	-0.284
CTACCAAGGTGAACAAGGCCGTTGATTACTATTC	0.451
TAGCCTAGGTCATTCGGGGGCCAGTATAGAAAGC	0.257
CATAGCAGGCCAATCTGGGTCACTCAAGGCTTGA	-0.436
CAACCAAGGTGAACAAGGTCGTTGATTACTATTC	1.68
ACTAGCAGGCCAAGTTTGGGTCACTCATACAAAG	-0.211
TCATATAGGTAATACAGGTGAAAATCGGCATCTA	0.486
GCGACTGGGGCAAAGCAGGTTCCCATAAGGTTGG	-0.517
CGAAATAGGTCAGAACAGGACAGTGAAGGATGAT	0.395
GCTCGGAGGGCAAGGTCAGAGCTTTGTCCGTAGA	-0.437
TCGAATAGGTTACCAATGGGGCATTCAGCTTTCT	0.0437
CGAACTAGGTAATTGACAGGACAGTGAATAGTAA	-0.131
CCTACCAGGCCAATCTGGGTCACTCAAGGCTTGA	0.0886
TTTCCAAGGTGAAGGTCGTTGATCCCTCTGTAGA	0.247
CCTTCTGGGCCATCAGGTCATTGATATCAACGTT	0.618

###

# Test system: PPARg:RXRa 30nM:10nM, anti-RXR (NR concentration 30 nM, RXRa partner concentration 10 nM)
# test_description: PBM binding z-score (relative to random genomic background probes); higher = stronger binding; sequences stand for … in GC…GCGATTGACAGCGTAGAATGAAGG
test_readout: PBM binding z-score

input_sequence	test_readout	readout_number
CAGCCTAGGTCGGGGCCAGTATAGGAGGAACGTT	PBM binding z-score	-1.38
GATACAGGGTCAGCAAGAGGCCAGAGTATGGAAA	PBM binding z-score	1.29
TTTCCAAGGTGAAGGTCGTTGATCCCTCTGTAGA	PBM binding z-score	1.88
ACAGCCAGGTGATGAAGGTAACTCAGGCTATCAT	PBM binding z-score	-0.229
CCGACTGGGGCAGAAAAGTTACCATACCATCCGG	PBM binding z-score	-0.571
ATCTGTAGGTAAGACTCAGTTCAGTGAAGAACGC	PBM binding z-score	-0.305
CAAACTAGGTCAACGGAAGGTCAAAGTCCGCATG	PBM binding z-score	5.66
AGTCAAAGTTTAGGACGAGGTAACGTAAAGCACG	PBM binding z-score	0.252
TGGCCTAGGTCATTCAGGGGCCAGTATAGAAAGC	PBM binding z-score	0.133
CCAACTAGGTCAAGGTCAAAGTCGGTTTGTGCCA	PBM binding z-score	5.13

###

# Test system: RXRa DBDmut IVT, anti-RXR (DBD mutation: RXRa K156A/R161A, NR concentration 90 nM)
# test_description: PBM binding z-score (relative to random genomic background probes); higher = stronger binding; sequences stand for … in GC…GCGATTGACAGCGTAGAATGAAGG
test_readout: PBM binding z-score

input_sequence	target_of_assay	test_readout	result
CAAACTAGGTCAAGAGGTCTAAGTCCGCTTCCCG	RXRa DBDmut IVT, anti-RXR (DBD mutation: RXRa K156A/R161A, NR concentration 90 nM)	PBM binding z-score	1.73
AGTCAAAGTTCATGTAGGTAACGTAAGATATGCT	RXRa DBDmut IVT, anti-RXR (DBD mutation: RXRa K156A/R161A, NR concentration 90 nM)	PBM binding z-score	4.74
CGAACTAGGTCAAGGTCAAAGTCGGTTTGTGCCA	RXRa DBDmut IVT, anti-RXR (DBD mutation: RXRa K156A/R161A, NR concentration 90 nM)	PBM binding z-score	3.12
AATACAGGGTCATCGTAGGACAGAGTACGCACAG	RXRa DBDmut IVT, anti-RXR (DBD mutation: RXRa K156A/R161A, NR concentration 90 nM)	PBM binding z-score	3.38
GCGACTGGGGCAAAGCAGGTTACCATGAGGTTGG	RXRa DBDmut IVT, anti-RXR (DBD mutation: RXRa K156A/R161A, NR concentration 90 nM)	PBM binding z-score	-0.402
CCTCCTGGGCCAAAGGTCATTGATTCCAATGCTC	RXRa DBDmut IVT, anti-RXR (DBD mutation: RXRa K156A/R161A, NR concentration 90 nM)	PBM binding z-score	0.646
ACTCAAAGTTCACTAGGTAACGTAAGATTCAGCT	RXRa DBDmut IVT, anti-RXR (DBD mutation: RXRa K156A/R161A, NR concentration 90 nM)	PBM binding z-score	4.63
TTACCAAGGTGAGCTGAGGTCGTCGATCCAACTC	RXRa DBDmut IVT, anti-RXR (DBD mutation: RXRa K156A/R161A, NR concentration 90 nM)	PBM binding z-score	-0.22
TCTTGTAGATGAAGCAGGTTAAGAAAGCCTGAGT	RXRa DBDmut IVT, anti-RXR (DBD mutation: RXRa K156A/R161A, NR concentration 90 nM)	PBM binding z-score	0.667
CCGACTGGGGCAAAGGTTACCAAACTCAGTACGA	RXRa DBDmut IVT, anti-RXR (DBD mutation: RXRa K156A/R161A, NR concentration 90 nM)	PBM binding z-score	-0.134
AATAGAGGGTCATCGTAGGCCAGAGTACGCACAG	RXRa DBDmut IVT, anti-RXR (DBD mutation: RXRa K156A/R161A, NR concentration 90 nM)	PBM binding z-score	2.46
GCGACTGGTGCAAAGCAGGTTACCATAAGGTTGG	RXRa DBDmut IVT, anti-RXR (DBD mutation: RXRa K156A/R161A, NR concentration 90 nM)	PBM binding z-score	-0.409
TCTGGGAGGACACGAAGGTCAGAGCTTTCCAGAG	RXRa DBDmut IVT, anti-RXR (DBD mutation: RXRa K156A/R161A, NR concentration 90 nM)	PBM binding z-score	0.416
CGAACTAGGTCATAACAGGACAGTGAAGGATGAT	RXRa DBDmut IVT, anti-RXR (DBD mutation: RXRa K156A/R161A, NR concentration 90 nM)	PBM binding z-score	1.66
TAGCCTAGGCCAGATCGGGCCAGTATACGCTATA	RXRa DBDmut IVT, anti-RXR (DBD mutation: RXRa K156A/R161A, NR concentration 90 nM)	PBM binding z-score	-1.32
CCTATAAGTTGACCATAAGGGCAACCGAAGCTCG	RXRa DBDmut IVT, anti-RXR (DBD mutation: RXRa K156A/R161A, NR concentration 90 nM)	PBM binding z-score	0.769
CCGACTGGGGCAGAAAGGTTACCAGACCATCCGG	RXRa DBDmut IVT, anti-RXR (DBD mutation: RXRa K156A/R161A, NR concentration 90 nM)	PBM binding z-score	-0.651
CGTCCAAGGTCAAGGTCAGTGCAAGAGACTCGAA	RXRa DBDmut IVT, anti-RXR (DBD mutation: RXRa K156A/R161A, NR concentration 90 nM)	PBM binding z-score	3.52
TGAATGAGGTTAAAGATCAAGGAACGTGGCGTCG	RXRa DBDmut IVT, anti-RXR (DBD mutation: RXRa K156A/R161A, NR concentration 90 nM)	PBM binding z-score	1.24
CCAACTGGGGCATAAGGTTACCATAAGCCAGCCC	RXRa DBDmut IVT, anti-RXR (DBD mutation: RXRa K156A/R161A, NR concentration 90 nM)	PBM binding z-score	-0.33
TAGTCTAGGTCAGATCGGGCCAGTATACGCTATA	RXRa DBDmut IVT, anti-RXR (DBD mutation: RXRa K156A/R161A, NR concentration 90 nM)	PBM binding z-score	-0.14
